System: RAW-Dual (murine macrophage reporter line)
Experiment: viability score (confluency relative to resting cells, overnight) (fraction); higher = more viable, active = viable (0.7 or more)
Conditions: modulator concentration 10 µM
For each of the molecules below, state its viability score.
One number for each entry.

Please give viability score for each item listed below.
1. O=C(O)c1cc2nc(-c3ccc(Cl)c(Cl)c3)cc(C(F)(F)F)n2n1
2. CC(=O)N1CCc2ccc(NC(=O)C3(c4ccccc4)CCOCC3)cc2C1
3. COc1c2occc2cc2ccc(=O)oc12

1.01
0.979
0.989

Please give viability score for each item listed below.
1. O=C(Nc1ccc(S(=O)(=O)Nc2nccs2)cc1)c1c(F)cccc1F
2. Cc1ccc(Nc2nccc(N(C)c3ccc4c(C)n(C)nc4c3)n2)cc1S(N)(=O)=O
3. CN(C)c1ccc(C=NN2C(=O)c3cccc4cccc(c34)C2=O)cc1

1. 1.01
2. 0.78
3. 1

Please give viability score for each item listed below.
1. CC(=Cc1ccccc1)CN1CC(C)OC(C)C1 (stereo unspecified)
2. Cc1cc(C#N)cc(C)c1Oc1nc(Nc2ccc(C#N)cc2)nc(N)c1Br
3. CC(=O)c1ccc(Nc2ncnc(Nc3ccc(C(C)=O)cc3)c2[N+](=O)[O-])cc1
4. CNC(C)CCC=C(C)C.CNC(C)CCC=C(C)C (stereo unspecified)

[0.956, 0.97, 0.991, 1.04]

Lookup result for N#Cc1cc(OC2CCSC2)nc2ccccc12 (stereo unspecified) ; measured viability score: 1

###

Tested on: RAW-Dual (murine macrophage reporter line)
Experiment: NF-kB reporter (SEAP) activity fold change vs agonist alone; higher = enhanced NF-kB activity
Settings: modulator concentration 10 µM; agonist: LPS 0.1 ug/mL
Tag: 1.0 if measured NF-kB reporter is not below 1, 0.0 if it is.

Please review the following examples before continuing.
O=C(Nc1ccc(-c2cn3ccsc3n2)cc1)NC1CCCCC1 | 1.0
Cc1cc(/C=C/C#N)cc(C)c1Nc1ccnc(Nc2ccc(C#N)cc2)n1 | 0.0

Threshold query (NF-kB reporter >= 1) on `Cc1nc(NC(=O)N2CCC[C@H]2C(N)=O)sc1-c1ccnc(C(C)(C)C(F)(F)F)c1`
0.0

Threshold query (NF-kB reporter >= 1) on `O=c1cc(O)nc(SCc2c(F)c(F)c(F)c(F)c2F)[nH]1`
0.0

Threshold query (NF-kB reporter >= 1) on Br.COc1ccc2c3c1OC1CC(O)C=CC31CCN(C)C2 (configuration not stated)
0.0

Threshold query (NF-kB reporter >= 1) on `CN(C)Cc1ccc(S(=O)(=O)n2ccc(/C=C/C(=O)NO)c2)cc1`
0.0

Threshold query (NF-kB reporter >= 1) on `CNC(=O)c1ccc(Nc2ncc(C(F)(F)F)c(NCc3nccnc3N(C)S(C)(=O)=O)n2)cc1`
0.0

Threshold query (NF-kB reporter >= 1) on Cc1ccc(-n2nnc3c(=O)n(CC(=O)N4CC(C)OC(C)C4)cnc32)cc1Cl (configuration not stated)
1.0

Threshold query (NF-kB reporter >= 1) on NC(CO)(CO)CO.O=C(c1ccccc1)c1ccc2n1CCC2C(=O)O (configuration not stated)
1.0

Threshold query (NF-kB reporter >= 1) on `COC(=O)C1=C(C)N(c2ccc(F)cc2)C(=O)C1`
0.0

Threshold query (NF-kB reporter >= 1) on `CNC(=O)c1cc(Oc2ccc(NC(=O)Nc3ccc(Cl)c(C(F)(F)F)c3)c(F)c2)ccn1.O`
0.0

Threshold query (NF-kB reporter >= 1) on `COC(=O)c1cc(NC(=O)c2cc(OC)c(OC)cc2[N+](=O)[O-])cc(C(=O)OC)c1`
1.0

Threshold query (NF-kB reporter >= 1) on CCOC(=O)CC(C)(O)P(=O)(OCC)OCC (configuration not stated)
1.0
